Read-out: growth arrest and DNA damage 45 (GADD45A), GADD45A (gene 1647)
test: LTEA_HepaRG_GADD45A: Life Technologies and Expression Analysis (LTEA) Assay for growth arrest and DNA damage 45 (GADD45A) using HepaRG (AID 2283458)
appliedConditions: mRNA level, 48 h; actives raise or lower the signal
Protocol: LTEA_HepaRG is a cell based, multiplexed-readout assay that uses HepaRG, a human liver cell line, with measurements taken at 48 hours after chemical dosing on a 96-well plate.LTEA_HepaRG_GADD45A is one of 102 assay component(s) measured in the LTEA HepaRG cell culture assay. It is a marker of Oxidative Stress.Data from the assay component LTEA_HepaRG_GADD45A was analyzed into 1 endpoint. […]
The source made the active and inactive calls. The calls were made as follows: active = hit-call score of the fitted dose curve at least 0.9, where 1 is the maximum; inactive = score below 0.9.
Respond with a class label; see active, inactive

These recorded examples may help you get a feel for the data.
CC(C)=CC1C(C(=O)OCc2coc(Cc3ccccc3)c2)C1(C)C (stereo unspecified); inactive
CCOc1nc(F)cc2nc(S(=O)(=O)Nc3c(Cl)cccc3Cl)nn12; inactive
Nc1c(Cl)c(Cl)nc(C(=O)O)c1Cl; inactive
CCCCC(O)(Cn1cncn1)c1ccc(Cl)cc1Cl (stereo unspecified); active
CCOc1cc(C(C)(C)C)ccc1C1COC(c2c(F)cccc2F)=N1 (stereo unspecified); inactive

Q: I'd appreciate the recorded outcome for `C=C(C)CN(CC)c1c([N+](=O)[O-])cc(C(F)(F)F)cc1[N+](=O)[O-]` from this test.
Ans: inactive

Q: I'd appreciate the recorded outcome for `CC1(C)CON(Cc2ccccc2Cl)C1=O` from this test.
Ans: inactive

Q: I'd appreciate the recorded outcome for `N#Cc1c(Cl)cccc1Cl` from this test.
Ans: inactive

Q: I'd appreciate the recorded outcome for `O=P(O)(O)CCCl` from this test.
Ans: inactive

Q: I'd appreciate the recorded outcome for CCNP(=S)(OC)O/C(C)=C/C(=O)OC(C)C (stereo unspecified) from this test.
Ans: inactive

Q: I'd appreciate the recorded outcome for `CS(=O)(=O)c1cc(C(F)(F)F)ccc1C(=O)c1cnoc1C1CC1` from this test.
Ans: inactive

Q: I'd appreciate the recorded outcome for `CCN(CC)c1nc(C)cc(OP(=S)(OC)OC)n1` from this test.
Ans: inactive

Q: I'd appreciate the recorded outcome for `COC(=O)NS(=O)(=O)c1ccc(N)cc1` from this test.
Ans: inactive

Q: I'd appreciate the recorded outcome for `CC(C)Nc1nc(Cl)nc(NC(C)C)n1` from this test.
Ans: inactive

Q: I'd appreciate the recorded outcome for `OC(c1ccc(Cl)cc1)(c1ccc(Cl)cc1)C(Cl)(Cl)Cl` from this test.
Ans: inactive

Q: I'd appreciate the recorded outcome for `Cc1cc(C)nc(Nc2ccccc2)n1` from this test.
Ans: inactive
